- measurementDescription: Oral bioavailability in dog at 2 mg/kg, po
- Type: ADME, organism-based, Canis lupus familiaris
- assayConditions: in vivo
measurementKind: bioavailability (%)

* COC(=O)N(CC(=O)O)Cc1cccc(OCc2nc(-c3ccc(Cl)cc3)oc2C)c1 | 58

====

- measurementDescription: Crystalline aqueous solubility at pH 6.5
- Assay type: physicochemical
- assayConditions: aqueous solution
measurementKind: solubility thermodynamic (µg/mL)

- COC(=O)N(CC(=O)O)Cc1cccc(OCc2nc(-c3ccc(Cl)cc3)oc2C)c1: 280

====

- measurementDescription: Oral bioavailability in cynomolgus monkey at 2 mg/kg, po
- Assay type: ADME, organism-based, Macaca fascicularis
- assayConditions: in vivo
measurementKind: bioavailability (%)

- COC(=O)N(CC(=O)O)Cc1cccc(OCc2nc(-c3ccc(Cl)cc3)oc2C)c1: 75

====

- measurementDescription: Half life in dog at 1 mg/kg, iv
- Assay type: ADME, organism-based, Canis lupus familiaris
- Design: dose 1 mg/kg, route intravenous
- assayConditions: in vivo
measurementKind: half-life (h)

• COC(=O)N(CC(=O)O)Cc1cccc(OCc2nc(-c3ccc(Cl)cc3)oc2C)c1 = 7.9

====

- measurementDescription: Cmax in BALB/c mouse at 12 mg/kg, po
- Assay type: ADME, organism-based
- Parameters: dose 12 mg/kg, route oral
- assayConditions: in vivo
measurementKind: Cmax (µM)

* COC(=O)N(CC(=O)O)Cc1cccc(OCc2nc(-c3ccc(Cl)cc3)oc2C)c1 | 23.8

====

- measurementDescription: AUC in Sprague-Dawley rat at 5 mg/kg, ia
- Format: ADME, organism-based
- Parameters: dose 5 mg/kg, route intra-arterial
- assayConditions: plasma
measurementKind: AUC (µM·h)

• COC(=O)N(CC(=O)O)Cc1cccc(OCc2nc(-c3ccc(Cl)cc3)oc2C)c1 = 48

====

- measurementDescription: Plasma clearance in Sprague-Dawley rat at 5 mg/kg, ia
- Assay type: ADME, organism-based
- Parameters: dose 5 mg/kg, route intra-arterial
measurementKind: clearance (mL/min/kg)

• COC(=O)N(CC(=O)O)Cc1cccc(OCc2nc(-c3ccc(Cl)cc3)oc2C)c1 = 4.3

====

- measurementDescription: Volume of distribution at steady state in cynomolgus monkey at 1 mg/kg, iv
- Format: ADME, organism-based, Macaca fascicularis
- Parameters: dose 1 mg/kg, route intravenous
- assayConditions: in vivo, read-out: Vdss
measurementKind: Vd (L/kg)

- COC(=O)N(CC(=O)O)Cc1cccc(OCc2nc(-c3ccc(Cl)cc3)oc2C)c1: 3.5

====

- measurementDescription: Cmax in Sprague-Dawley rat at 10 mg/kg, po
- Assay type: ADME, organism-based
- Parameters: dose 10 mg/kg, route oral
- assayConditions: in vivo
measurementKind: Cmax (µM)

- COC(=O)N(CC(=O)O)Cc1cccc(OCc2nc(-c3ccc(Cl)cc3)oc2C)c1: 43

====

- measurementDescription: Oral bioavailability in Sprague-Dawley rat at 10 mg/kg
- Format: ADME, organism-based
- assayConditions: in vivo
measurementKind: bioavailability (%)

• COC(=O)N(CC(=O)O)Cc1cccc(OCc2nc(-c3ccc(Cl)cc3)oc2C)c1 = 91

====

- measurementDescription: AUC in cynomolgus monkey at 1 mg/kg, iv
- Assay type: ADME, organism-based, Macaca fascicularis
- Parameters: dose 1 mg/kg, route intravenous
- assayConditions: plasma
measurementKind: AUC (µM·h)

• COC(=O)N(CC(=O)O)Cc1cccc(OCc2nc(-c3ccc(Cl)cc3)oc2C)c1 = 5.8

====

- measurementDescription: Half life in cynomolgus monkey at 1 mg/kg, iv
- Assay type: ADME, organism-based, Macaca fascicularis
- Design: dose 1 mg/kg, route intravenous
- assayConditions: in vivo
measurementKind: half-life (h)

- COC(=O)N(CC(=O)O)Cc1cccc(OCc2nc(-c3ccc(Cl)cc3)oc2C)c1: 11.9

====

- measurementDescription: AUC in Sprague-Dawley rat at 10 mg/kg, po
- Format: ADME, organism-based
- Design: dose 10 mg/kg, route oral
- assayConditions: plasma
measurementKind: AUC

* COC(=O)N(CC(=O)O)Cc1cccc(OCc2nc(-c3ccc(Cl)cc3)oc2C)c1 | 88 µM·h

====

- measurementDescription: Half life in Sprague-Dawley rat at 5 mg/kg, ia
- Format: ADME, organism-based
- Set-up: dose 5 mg/kg, route intra-arterial
- assayConditions: in vivo
measurementKind: half-life (min)

* COC(=O)N(CC(=O)O)Cc1cccc(OCc2nc(-c3ccc(Cl)cc3)oc2C)c1 | 192

====

- measurementDescription: Plasma clearance in dog at 1 mg/kg, iv
- Assay type: ADME, organism-based, Canis lupus familiaris
- Parameters: dose 1 mg/kg, route intravenous
measurementKind: clearance

• COC(=O)N(CC(=O)O)Cc1cccc(OCc2nc(-c3ccc(Cl)cc3)oc2C)c1 = 9.5 mL/min/kg

====

- measurementDescription: Tmax in dog at 2 mg/kg, po
- Assay type: ADME, organism-based, Canis lupus familiaris
- Set-up: dose 2 mg/kg, route oral
- assayConditions: in vivo
measurementKind: Tmax (min)

- COC(=O)N(CC(=O)O)Cc1cccc(OCc2nc(-c3ccc(Cl)cc3)oc2C)c1: 54

====

- measurementDescription: Volume of distribution at steady state in Sprague-Dawley rat at 5 mg/kg, ia
- Format: ADME, organism-based
- Design: dose 5 mg/kg, route intra-arterial
- assayConditions: in vivo, read-out: Vdss
measurementKind: Vd

* COC(=O)N(CC(=O)O)Cc1cccc(OCc2nc(-c3ccc(Cl)cc3)oc2C)c1 | 0.7 L/kg

====

- measurementDescription: Tmax in Sprague-Dawley rat at 10 mg/kg, po
- Format: ADME, organism-based
- Set-up: dose 10 mg/kg, route oral
- assayConditions: in vivo
measurementKind: Tmax (min)

- COC(=O)N(CC(=O)O)Cc1cccc(OCc2nc(-c3ccc(Cl)cc3)oc2C)c1: 24

====

- measurementDescription: Volume of distribution at steady state in dog at 1 mg/kg, iv
- Type: ADME, organism-based, Canis lupus familiaris
- Set-up: dose 1 mg/kg, route intravenous
- assayConditions: in vivo, read-out: Vdss
measurementKind: Vd (L/kg)

• COC(=O)N(CC(=O)O)Cc1cccc(OCc2nc(-c3ccc(Cl)cc3)oc2C)c1 = 1.8

====

- measurementDescription: Plasma clearance in cynomolgus monkey at 1 mg/kg, iv
- Type: ADME, organism-based, Macaca fascicularis
- Set-up: dose 1 mg/kg, route intravenous
measurementKind: clearance

• COC(=O)N(CC(=O)O)Cc1cccc(OCc2nc(-c3ccc(Cl)cc3)oc2C)c1 = 8.9 mL/min/kg

====

- measurementDescription: AUC (0 to 8 h) in BALB/c mouse at 6 mg/kg, iv
- assayConditions: plasma
measurementKind: AUC(0-8h) (µM·h)

* COC(=O)N(CC(=O)O)Cc1cccc(OCc2nc(-c3ccc(Cl)cc3)oc2C)c1 | 19.3

====

- measurementDescription: Oral bioavailability in BALB/c mouse at 12 mg/kg
- Format: ADME, organism-based
- assayConditions: in vivo
measurementKind: bioavailability

- COC(=O)N(CC(=O)O)Cc1cccc(OCc2nc(-c3ccc(Cl)cc3)oc2C)c1: 88%

====

- measurementDescription: Half life in BALB/c mouse at 6 mg/kg, iv
- Format: ADME, organism-based
- Parameters: dose 6 mg/kg, route intravenous
- assayConditions: in vivo
measurementKind: half-life (h)

- COC(=O)N(CC(=O)O)Cc1cccc(OCc2nc(-c3ccc(Cl)cc3)oc2C)c1: 3
